# SYSTEM: Inadl_3, Q8NI35
# Sequence (Q8NI35 359-469): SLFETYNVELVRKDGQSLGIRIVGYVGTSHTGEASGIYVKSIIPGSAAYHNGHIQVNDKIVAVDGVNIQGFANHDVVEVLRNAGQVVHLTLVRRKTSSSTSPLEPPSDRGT
# METHOD NOTES: holdup assay
# Design: key: below the threshold = too weak to quantify, mostly under pKd 3.1 to 4
# CONDITION PARAMETERS: plain residues with an end cap or a label only (N-terminal biotin on a linker: ttds)
PROPERTY NAME: pKd

[[record]]
binder = "SEKHFRETEV [HTLV1-TAX1, P03409]"
obs_value = 3.69

[[record]]
binder = "LCALPKVTTV [AGMAT, Q9BSE5]"
obs_value = 3.54

[[record]]
binder = "QFQYAKESYI [TAGAP, Q8N103]"
obs_value = "below the threshold"

[[record]]
binder = "DPRNTQTSQI [ABRAXAS2, Q15018]"
obs_value = "below the threshold"

[[record]]
binder = "VNKVWDQSSV [CIT, O14578]"
obs_value = "below the threshold"


Batch of 5 binders: report pKd for each.
1. PKRPFVESNV [TANC2, Q9HCD6]
2. DPLTPSRSQL [DGKK, Q5KSL6]
3. LDSQIQETSI [MAP4, P27816]
4. RTRQRNETQV [HPV51-E6, P26554]
5. SRRPRTETQV [HPV31-E6, P17386]

below the threshold
below the threshold
below the threshold
below the threshold
below the threshold

The reported numbers originate from paper PMC9482650.
